Target: EML4-ALK-I1171T BaF3 cells (Homo sapiens, UniProt Q9UM73, I1171T)
Sequence (Q9UM73 1058-1620 I1171T limits assumed): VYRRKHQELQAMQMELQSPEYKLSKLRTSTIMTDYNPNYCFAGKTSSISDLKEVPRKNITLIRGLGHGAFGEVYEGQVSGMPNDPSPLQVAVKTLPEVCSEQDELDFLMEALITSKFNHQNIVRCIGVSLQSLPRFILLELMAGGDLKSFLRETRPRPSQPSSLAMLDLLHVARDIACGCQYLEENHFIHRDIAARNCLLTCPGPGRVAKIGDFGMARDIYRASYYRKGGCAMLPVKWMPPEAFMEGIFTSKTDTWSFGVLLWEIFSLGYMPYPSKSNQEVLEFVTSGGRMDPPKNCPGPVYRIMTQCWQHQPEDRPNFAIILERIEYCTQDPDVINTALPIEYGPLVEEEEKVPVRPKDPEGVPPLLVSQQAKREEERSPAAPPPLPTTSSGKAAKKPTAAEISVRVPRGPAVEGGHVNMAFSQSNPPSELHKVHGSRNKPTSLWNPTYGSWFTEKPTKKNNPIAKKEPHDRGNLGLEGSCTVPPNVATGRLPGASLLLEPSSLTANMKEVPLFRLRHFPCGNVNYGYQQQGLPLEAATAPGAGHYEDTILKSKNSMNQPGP
Experiment: Growth inhibition of BaF3 cells stably transfected with ALK point mutation I1171T
Conditions: read-out: Growth inhibitory activity IC50, EML4-ALK-I1171T
PROPERTY: IC50

## Task IC50 for `COc1cc2c(cc1Nc1nc(Nc3ccccc3S(=O)(=O)C(C)C)c3sccc3n1)N(C(=O)CN(C)C)CC2` ?
## Result < 4 nM

---

// values below are reported inhibition at 3.3 µM
Molecular target: EML4-ALK-BaF3 (Homo sapiens)
Construct: EML4 (echinoderm microtubule associated protein like 4, Q9HC35) fusion partner; expressed in transfected cells; host or cells: BaF3; the other entry of the earlier key: EML4 (Q9HC35, Echinoderm microtubule-associated protein-like 4)
Test: Growth inhibition of BaF3 cells stably transfected with kinase EML4-ALK (MTS)
Format: cell-based
Conditions: compound concentration 3.3 μM, read-out: cell growth inhibition rate, EML4-ALK
Please state the figure in %; there is no need to write the unit.

COc1cc(N2CCC(N3CCN(C)CC3)CC2)ccc1Nc1nc(Nc2ccccc2S(=O)(=O)C(C)(C)C)c2sccc2n1 ... 96
CCP(=O)(CC)c1ccccc1Nc1nc(Nc2ccc(N3CCC(N(C)C)CC3)cc2OC)nc2ccsc12 ... 99.5

## Task What value of measured inhibition at 3.3 µM is listed for `COC(=O)c1ccccc1Nc1nc(Nc2cc(C)c(C3CCN(C)CC3)cc2OC)nc2ccsc12` ?
## Result 98

## Task Then this compound: `CC(C)S(=O)(=O)c1ccccc1COc1nc(Nc2ccc(N3CCOCC3)cc2)nc2ccsc12`
## Result 100

## Task Moving on to `COc1cc(N2CCN(C)CC2)ccc1Nc1nc(Nc2ccccc2P(C)(C)=O)c2sccc2n1`
## Result 99.3

## Task Same read-out for `COC(=O)c1ccccc1Sc1nc(Nc2ccc(S(N)(=O)=O)cc2)nc2ccsc12` ?
## Result 30.9

## Task Do the same for `COC(=O)c1ccccc1Nc1nc(Nc2cc(C)c(C3CCN(C)CC3)cc2OC(C)C)nc2ccsc12` please
## Result 98.8

## Task What do you get for `COc1cc(F)c(NC(=O)CN(C)C)cc1Nc1nc(Nc2ccccc2S(=O)(=O)C(C)C)c2sccc2n1` ?
## Result 96.8

---

Molecular target: NPM-ALK-BaF3 (Homo sapiens, UniProt Q9UM73)
Construct: NPM (nuclear phosphoprotein / nucleophosmin, NPM1, P06748) fusion partner; expressed in transfected cells; host or cells: BaF3; the other entry of the earlier key: NPM1 (P06748, Nucleophosmin)
Sequence (Q9UM73 with tags, fused parts or gaps): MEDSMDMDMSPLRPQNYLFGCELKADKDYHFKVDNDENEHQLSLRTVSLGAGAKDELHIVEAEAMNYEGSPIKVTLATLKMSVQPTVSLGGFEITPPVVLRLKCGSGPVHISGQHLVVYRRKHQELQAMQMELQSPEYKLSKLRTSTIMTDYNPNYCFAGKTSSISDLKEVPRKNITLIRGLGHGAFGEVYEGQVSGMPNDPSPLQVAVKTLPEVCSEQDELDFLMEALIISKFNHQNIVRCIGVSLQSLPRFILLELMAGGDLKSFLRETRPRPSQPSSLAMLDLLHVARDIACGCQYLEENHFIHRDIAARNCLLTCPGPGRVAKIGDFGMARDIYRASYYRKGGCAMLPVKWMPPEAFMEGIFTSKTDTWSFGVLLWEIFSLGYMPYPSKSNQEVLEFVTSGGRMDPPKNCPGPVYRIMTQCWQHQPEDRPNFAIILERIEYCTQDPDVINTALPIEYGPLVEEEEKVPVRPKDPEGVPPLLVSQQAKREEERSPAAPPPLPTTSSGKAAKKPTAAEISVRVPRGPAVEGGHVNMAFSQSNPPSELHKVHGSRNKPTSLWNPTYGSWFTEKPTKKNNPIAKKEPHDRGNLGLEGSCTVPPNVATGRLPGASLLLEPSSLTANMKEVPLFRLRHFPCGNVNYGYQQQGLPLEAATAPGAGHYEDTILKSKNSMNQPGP
Test: Growth inhibition of BaF3 cells stably transfected with kinase NPM-ALK (MTS)
Format: cell-based
Conditions: compound concentration 3.3 μM, read-out: cell growth inhibition rate, NPM-ALK
Reported inhibition at 3.3 µM values are given for each entry in this list.
Give your result in % as a bare value.

Please review the entries below; each comes with its answer.
COC(=O)c1ccccc1Nc1nc(Nc2cc(C)c(C3CCN(C)CC3)cc2OC)nc2ccsc12 ... 84.2
COc1cc(N2CCC(N3CCCC3)CC2)ccc1Nc1nc(Nc2ccccc2P(C)(C)=O)c2sccc2n1 ... 82.5
COc1cc(C2CCN(C)CC2)c(C)cc1Nc1nc(Nc2ccccc2S(=O)(=O)C(C)C)c2sccc2n1 ... 88.9
CNC(=O)c1ccccc1Nc1nc(Nc2ccc(N3CCN(C)CC3)cc2)nc2ccsc12 ... 28.1
COc1cc(N2CCC(N3CCCC3)CC2)ccc1Nc1nc(Nc2ccccc2[S+]([O-])C(C)C)c2sccc2n1 (centres unmarked) ... 84.8

## Task State its inhibition at 3.3 µM on NPM-ALK-BaF3 (Homo sapiens, UniProt Q9UM73): `CC(C)S(=O)(=O)c1nn(C)cc1Nc1nc(Nc2ccc(N3CCC(O)CC3)cc2)nc2ccsc12`
## Result 53.2

## Task Item: `CC(C)S(=O)(=O)c1ccccc1Nc1nc(Nc2ccc(N3CCC(O)CC3)cn2)nc2ccsc12`
## Result 55.9

## Task Can you handle `COC(=O)c1ccccc1Sc1nc(Nc2ccc(N3CCC(O)CC3)cc2)nc2ccsc12` next?
## Result 7.09

## Task Thanks! And `COc1cc(N2CCC(N3CCN(C)CC3)CC2)ccc1Nc1nc(Nc2ccccc2NS(C)(=O)=O)c2sccc2n1` ?
## Result 85.1

## Task Queued: `Cc1cc(Nc2nc(Nc3ccccc3S(=O)(=O)C(C)C)c3sccc3n2)c(OC(C)C)cc1C1CCN(C)CC1`
## Result 88.5

## Task Also need `CS(=O)(=O)Nc1cccc(Nc2nc(Nc3ccc(N4CCC(O)CC4)cc3)nc3ccsc23)c1` , thanks.
## Result 21.6

## Task Would you kindly repeat that for `CC(C)S(=O)(=O)c1ccccc1Nc1nc(Nc2ccc(N3CCN(C)CC3)cn2)nc2ccsc12` ?
## Result 97.4

## Task Also `CS(=O)(=O)Nc1ccccc1Nc1nc(Nc2ccc(S(N)(=O)=O)cc2)nc2ccsc12` ?
## Result 15.1

## Task Follow-up entry: `CCOc1cc(N2CCN(C)CC2)ccc1Nc1nc(Nc2ccccc2C(=O)OC)c2sccc2n1`
## Result 0

## Task Please answer likewise for `COC(=O)c1ccccc1Sc1nc(Nc2ccc(N3CCC(N4CCN(C)CC4)CC3)cc2OC)nc2ccsc12`
## Result 16.2

## Task Also need `COC(=O)c1ccccc1Sc1nc(Nc2cc3c(cc2OC)CCN3C(=O)CN(C)C)nc2ccsc12` , thanks.
## Result 17.7

## Task Same read-out for `CC(C)S(=O)(=O)c1nn(C)cc1Nc1nc(Nc2ccc(N3CCN(C)CC3)cc2)nc2ccsc12` ?
## Result 46.5

## Task Would you kindly repeat that for `CC(C)S(=O)(=O)c1ccccc1Nc1nc(Nc2ccc(N3CCC(O)CC3)cc2)nc2ccsc12` ?
## Result 96

## Task Could you do the same for `CNC(=O)c1cccc(F)c1Nc1nc(Nc2ccc(N3CCN(C)CC3)cc2OC)nc2ccsc12` , please?
## Result 12

## Task Try `CS(=O)(=O)c1ccccc1CNc1nc(Nc2ccc(N3CCC(O)CC3)cc2)nc2ccsc12` next.
## Result 45.8

## Task Now consider `COc1cc(N2CCC(N3CCCC3)CC2)ccc1Nc1nc(Nc2ccccc2NS(C)(=O)=O)c2sccc2n1` and answer again.
## Result 84.5
